Target: Tyrosine-protein phosphatase non-receptor type 1 (Homo sapiens, UniProt P18031)

| compound | system | Ki, nM |
| --- | --- | --- |
| C[C@H](CCC(=O)O)[C@H]1CCC2C3CC=C4C(C)(C)c5c(cnn5-c5ccc(F)cc5)C[C@]4(C)C3CC[C@@]21C (stereo partly specified) | Tyrosine-protein phosphatase non-receptor type 1 (Homo sapiens, UniProt P18031) | 260 |

====

Test: Inhibition of Calf ALR2 in presence of NADPH by UV spectrophotometric analysis
Design: species or system Bos taurus
Readings of IC50 for the listed molecules

| molecule | IC50 / nM |
| --- | --- |
| Nc1cc(Cl)ccc1/C(=N/Nc1nc(-c2cc3ccccc3oc2=O)cs1)c1ccccc1 | 110 |
| CCCCNCn1nc(-c2cc3ccccc3oc2=O)oc1=S | 310 |
| CC1=C(CC(=O)O)c2cc(F)ccc2/C1=C\c1ccc([S+](C)[O-])cc1 (stereo not drawn) | 293 |

====

Each entry below lists one item and its recorded IC50 value.
Molecular target: Fructose-1,6-bisphosphatase 1 (Homo sapiens)
Sequence (P09467 whole entry): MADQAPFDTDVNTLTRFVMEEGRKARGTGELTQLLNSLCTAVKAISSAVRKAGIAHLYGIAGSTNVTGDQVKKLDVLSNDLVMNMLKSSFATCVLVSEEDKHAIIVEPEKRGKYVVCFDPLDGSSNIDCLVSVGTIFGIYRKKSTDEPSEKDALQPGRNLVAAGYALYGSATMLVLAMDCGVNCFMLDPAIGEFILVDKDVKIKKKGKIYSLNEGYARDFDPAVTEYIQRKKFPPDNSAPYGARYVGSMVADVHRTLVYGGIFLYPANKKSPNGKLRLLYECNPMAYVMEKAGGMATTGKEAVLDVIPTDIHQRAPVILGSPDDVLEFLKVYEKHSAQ

| itemSmiles | system | unitText | IC50 |
| --- | --- | --- | --- |
| Cc1ccc(-c2nnc(-c3cccc(NC(=O)CCCCO)c3)o2)cc1 | Fructose-1,6-bisphosphatase 1 (Homo sapiens) | µM | 5.61 |
| Cc1ccc(-c2nnc(-c3cccc(NC(=O)CCCCCCO)c3)o2)cc1 | Fructose-1,6-bisphosphatase 1 (Homo sapiens) | µM | 1.32 |

====

Target: UniProt Q5NUL3
Sequence (Q5NUL3 whole entry): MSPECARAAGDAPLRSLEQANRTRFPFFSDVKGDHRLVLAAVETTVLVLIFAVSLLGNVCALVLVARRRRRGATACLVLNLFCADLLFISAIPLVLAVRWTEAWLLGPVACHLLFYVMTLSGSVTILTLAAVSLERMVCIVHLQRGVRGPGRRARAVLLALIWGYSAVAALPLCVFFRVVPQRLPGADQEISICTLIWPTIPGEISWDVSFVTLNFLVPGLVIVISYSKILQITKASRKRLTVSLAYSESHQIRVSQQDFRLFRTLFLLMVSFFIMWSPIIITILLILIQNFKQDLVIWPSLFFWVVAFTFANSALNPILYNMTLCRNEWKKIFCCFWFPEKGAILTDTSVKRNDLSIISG
Experiment: Agonist activity at human GPR120 expressed in CHO cells assessed as intracellular phosphorylated ERK incubated for 16 to 18 hrs by AlphaScreen SureFire assay
Type: cell-based
pEC50: −log10 of the molar value.

| itemSmiles | pEC50 |
| --- | --- |
| O=C(O)[C@H]1C[C@@H]1CCC12CCC(c3cccc(Oc4ccccc4)c3)(CC1)O2 | 6.66 |

====

Target: Tyrosine-protein phosphatase non-receptor type 1 (Homo sapiens, UniProt P18031)
Sequence (P18031 whole entry): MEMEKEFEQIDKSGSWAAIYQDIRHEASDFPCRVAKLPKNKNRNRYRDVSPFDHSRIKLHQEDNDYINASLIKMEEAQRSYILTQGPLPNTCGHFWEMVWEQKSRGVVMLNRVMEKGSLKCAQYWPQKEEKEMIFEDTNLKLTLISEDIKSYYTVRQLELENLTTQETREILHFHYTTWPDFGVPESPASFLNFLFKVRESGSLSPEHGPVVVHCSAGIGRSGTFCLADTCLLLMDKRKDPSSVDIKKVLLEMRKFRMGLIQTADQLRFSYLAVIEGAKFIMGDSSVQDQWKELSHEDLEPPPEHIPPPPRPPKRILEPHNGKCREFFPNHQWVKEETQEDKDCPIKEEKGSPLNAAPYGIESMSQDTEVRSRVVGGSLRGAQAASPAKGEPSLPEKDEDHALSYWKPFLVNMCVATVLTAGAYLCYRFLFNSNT
Assay: Inhibition of PTP1B (unknown origin) using pNPP as substrate for 2 mins by spectroscopic analysis
pIC50: −log10 of the molar value.

| compound | pIC50 |
| --- | --- |
| C[C@H](CCC(=O)O)[C@H]1CCC2C3CC=C4C(C)(C)c5c(cnn5-c5ccc(F)cc5)C[C@]4(C)C3CC[C@@]21C (stereo partly specified) | 6.38 |

====

Molecular target: Tyrosine-protein phosphatase non-receptor type 1 (Homo sapiens)
Experiment: Inhibition of PTP1B (unknown origin)
IC50 values by entry

| itemSmiles | IC50, nM |
| --- | --- |
| O=c1c2cc(O)c(O)cc2oc2cc(O)cc(O)c12 | 9200 |
| Oc1cc(Cc2cc(O)c(Br)c(Br)c2Br)c(Br)c(Br)c1O | 2400 |
| COc1cc(/C=C2\SC(=S)N(Cc3ccc(C(=O)O)cc3)C2=O)ccc1OCc1ccccc1 | 1100 |
| Cc1cc(OCc2ccc(C(=O)O)cc2)ccc1/C=C1\SC(=S)N(Cc2ccc(C(=O)O)cc2)C1=O | 240 |

====

Molecular target: Dipeptidyl peptidase 4 (Homo sapiens, UniProt P27487)
Sequence (P27487 whole entry): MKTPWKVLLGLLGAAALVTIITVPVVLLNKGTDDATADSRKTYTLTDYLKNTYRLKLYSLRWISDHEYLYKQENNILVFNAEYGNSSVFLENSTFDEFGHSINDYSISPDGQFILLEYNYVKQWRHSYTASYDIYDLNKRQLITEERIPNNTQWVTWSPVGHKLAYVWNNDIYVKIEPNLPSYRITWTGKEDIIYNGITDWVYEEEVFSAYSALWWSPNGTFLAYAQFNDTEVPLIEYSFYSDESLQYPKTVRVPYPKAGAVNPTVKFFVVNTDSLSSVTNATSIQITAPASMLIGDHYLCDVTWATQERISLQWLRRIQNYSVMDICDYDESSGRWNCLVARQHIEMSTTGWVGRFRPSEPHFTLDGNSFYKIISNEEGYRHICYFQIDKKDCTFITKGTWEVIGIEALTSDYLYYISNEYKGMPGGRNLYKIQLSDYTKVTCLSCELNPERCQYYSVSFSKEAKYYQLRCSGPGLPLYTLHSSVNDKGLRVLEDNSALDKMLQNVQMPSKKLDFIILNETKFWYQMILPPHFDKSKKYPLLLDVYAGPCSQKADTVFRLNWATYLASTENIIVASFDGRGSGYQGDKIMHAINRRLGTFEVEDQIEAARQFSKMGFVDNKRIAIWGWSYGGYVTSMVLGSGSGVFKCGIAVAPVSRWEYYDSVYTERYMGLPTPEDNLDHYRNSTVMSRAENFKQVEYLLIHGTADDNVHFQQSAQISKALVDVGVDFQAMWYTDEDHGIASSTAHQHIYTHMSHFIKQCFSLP
Assay: Inhibition of human recombinant DPP4 using H-Gly-Pro-AMC as substrate incubated for 10 mins by microplate reader analysis
pIC50: −log10 of the molar value.
readoutType: pIC50

| itemSmiles | reading |
| --- | --- |
| NNc1nc(NN)nc(N2C(=O)CSC2=O)n1 | 5.20 |

====

Molecular target: Free fatty acid receptor 1 (Homo sapiens)
Experiment: Agonist activity at FFAR1 (unknown origin) incubated for 16 hrs by Promoter-luciferase assay

| compound | system | EC50 / µM |
| --- | --- | --- |
| CC#CC(CC(=O)O)c1ccc(OCc2cccc(CN3CCc4oc(C5CC5)nc4C3)c2)cc1 (stereo unspecified) | Free fatty acid receptor 1 (Homo sapiens) | 0.05 |

====

Biological target: Free fatty acid receptor 1 (Homo sapiens, UniProt O14842)
Sequence (O14842 whole entry): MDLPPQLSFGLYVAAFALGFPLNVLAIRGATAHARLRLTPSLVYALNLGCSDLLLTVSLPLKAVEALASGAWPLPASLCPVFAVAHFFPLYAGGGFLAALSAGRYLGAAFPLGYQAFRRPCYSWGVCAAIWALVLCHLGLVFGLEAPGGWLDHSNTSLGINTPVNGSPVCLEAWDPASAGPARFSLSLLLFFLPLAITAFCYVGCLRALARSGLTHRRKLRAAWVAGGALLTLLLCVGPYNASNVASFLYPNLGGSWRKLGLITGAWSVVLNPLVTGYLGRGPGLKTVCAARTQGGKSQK
Test: Agonist activity at human GPR40 expressed in HEK293 cells incubated for 1 hrs by calcium flux assay
Assay type: cell-based
pEC50: −log10 of the molar value.
readoutType: pEC50

| itemSmiles | system | readoutType | reading |
| --- | --- | --- | --- |
| COc1ccc(F)c(-c2ncc(COc3ccc([C@@H](CC(=O)O)C4CC4)cc3)nc2OCCC(F)(F)F)c1 | Free fatty acid receptor 1 (Homo sapiens, UniProt O14842) | pEC50 | 8.22 |
